Tested on: downy bromegrass (Bromus tectorum)
Experiment: Test B pre-/postemergence plant response
Type: in vivo
Conditions: Postemergence, 16 g ai/ha; scale 0 to 100
experimental readout: Plant response rating, Bromegrass, Downy
One number for each entry.

Q. Given the molecule Cc1cc(-c2ccc(Cl)cc2)nn1-c1c(OC(=O)Oc2ccccc2)cnn(C)c1=O , what is its reported Plant response rating, Bromegrass, Downy?
A. 50

Q. Follow-up item: CCCc1cc(-c2ccc(Cl)cc2)nn1-c1c(O)cnn(C)c1=O
A. 0

List reported Plant response rating, Bromegrass, Downy for each of these molecules:
1. Cc1nn(C)c(=O)c(-n2nc(-c3ccc(Cl)cc3)cc2Cl)c1O
2. CCCC(=O)Oc1cnn(C)c(=O)c1-n1nc(-c2ccc(Cl)cc2)cc1C
3. CCc1cc(-c2ccc(Br)cc2)nn1-c1c(O)cnn(CC(F)(F)F)c1=O
4. Cn1ncc(O)c(-n2nc(-c3ccc(Cl)cc3)cc2C2CC2)c1=O

A.
[5, 0, 0, 60]
